thermal shift delta Tm values by entry
test system: LOC_OS01G01410-cb001; test: thermal shift delta Tm vs DMSO control; higher = stronger stabilization (binding); details: 12.5 µM; protein concentration 2 µM;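 note: purified Escherichia coli-expressed rice kinase domain construct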
A number alone suffices; assume °C.

Below: 6 compounds and their reported thermal shift delta Tm.
CN1CCN(c2nc(C3=C(c4c[nH]c5ccccc45)C(=O)NC3=O)c3ccccc3n2)CC1 [Sotrastaurin] ... 0.84
Cc1cc(Nc2nc(N[C@@H](C)c3ncc(F)cn3)ncc2Cl)[nH]n1 ... 4.53
N#Cc1cnc(Nc2cc(NC[C@H]3CNCCO3)c(C(F)(F)F)cn2)cn1 ... 0.36
CCCCNc1ncc2c(-c3ccc(CN4CCN(C)CC4)cc3)cn([C@H]3CC[C@H](O)CC3)c2n1 ... 5.57
CCC(=O)Nc1cccc(Oc2nc(Nc3ccc(N4CCN(C)CC4)cc3OC)ncc2Cl)c1 ... 0.36
Cc1cnc(Nc2ccc(OCCN3CCCC3)cc2)nc1Nc1cccc(S(=O)(=O)NC(C)(C)C)c1 ... 1.71

Query: Given the entry COc1cc(F)c(F)c(Nc2ccc(I)cc2F)c1NS(=O)(=O)C1(C[C@H](O)CO)CC1 [Refametinib (RDEA119, Bay 86-9766)] , report its measured thermal shift delta Tm.
Result: 1.35

Query: Given the entry CC1Oc2cc(cnc2N)-c2c(nn(C)c2C#N)CN(C)C(=O)c2ccc(F)cc21 (configuration not stated) , report its measured thermal shift delta Tm.
Result: 0.52

Query: Given the entry C[C@H]1[C@H](C)CC[C@]2(C(=O)O)CC[C@]3(C)C(=CC[C@@H]4[C@@]5(C)C[C@@H](O)[C@H](O)[C@@](C)(CO)[C@@H]5CC[C@]43C)[C@H]12 [Asiatic Acid] , report its measured thermal shift delta Tm.
Result: 0.45
